biological target: human PDE4B1 (Homo sapiens (Human), UniProt Q07343); assay: cAMP HTRF assay to determine the activity of hPDE4B1; settings: human recombinant PDE4B1 expressed in Sf9 cells; cAMP 40 nM; N=1-2, n=2; read-out: PDE4B IC50-value
Sequence (Q07343 whole entry): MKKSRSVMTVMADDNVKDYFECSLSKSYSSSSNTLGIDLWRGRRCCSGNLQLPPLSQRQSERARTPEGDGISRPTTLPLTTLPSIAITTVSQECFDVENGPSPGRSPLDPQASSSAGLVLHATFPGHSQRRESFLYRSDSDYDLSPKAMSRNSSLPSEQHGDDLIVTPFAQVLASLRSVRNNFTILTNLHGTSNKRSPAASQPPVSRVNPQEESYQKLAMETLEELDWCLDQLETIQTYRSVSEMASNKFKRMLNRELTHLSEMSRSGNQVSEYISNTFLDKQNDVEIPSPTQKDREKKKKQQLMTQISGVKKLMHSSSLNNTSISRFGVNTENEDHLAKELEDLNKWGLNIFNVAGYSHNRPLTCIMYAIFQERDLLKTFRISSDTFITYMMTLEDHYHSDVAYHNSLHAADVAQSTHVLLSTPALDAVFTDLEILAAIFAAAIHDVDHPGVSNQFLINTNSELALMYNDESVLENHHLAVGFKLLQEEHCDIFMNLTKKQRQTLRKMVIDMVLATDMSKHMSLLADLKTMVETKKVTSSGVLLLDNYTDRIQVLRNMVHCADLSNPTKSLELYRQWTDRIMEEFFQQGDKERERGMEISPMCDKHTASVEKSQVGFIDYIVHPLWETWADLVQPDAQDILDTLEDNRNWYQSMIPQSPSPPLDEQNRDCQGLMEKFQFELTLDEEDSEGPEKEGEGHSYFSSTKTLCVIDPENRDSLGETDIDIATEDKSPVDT
pIC50: −log10 of the molar value.
readout_label: pIC50

Some compounds with known pIC50 results, for comparison:
[[record]]
compound = "CCc1nc(-c2cccc(S(C)(=O)=O)c2)nc2c1ccn2-c1cccc(OCC(=O)N(C)C)c1"
subject_of_test = "human PDE4B1 (Homo sapiens (Human), UniProt Q07343)"
readout_label = "pIC50"
readout_value = "> 6.00"

[[record]]
compound = "COc1ccc(-c2nc(C)c3ccn(-c4ccc(CC(=O)O)cc4)c3n2)cc1Cl"
subject_of_test = "human PDE4B1 (Homo sapiens (Human), UniProt Q07343)"
readout_label = "pIC50"
readout_value = "> 6.00"

[[record]]
compound = "CCc1nc(-c2ccc(OC)c(F)c2)nc2c1CCN2c1ccc(CC(=O)O)cc1"
subject_of_test = "human PDE4B1 (Homo sapiens (Human), UniProt Q07343)"
readout_label = "pIC50"
readout_value = "> 6.00"

[[record]]
compound = "CCc1nc(-c2ccc(OC)c(F)c2)nc2c1CCN2c1cccc(OCC(=O)NC2COC2)c1"
subject_of_test = "human PDE4B1 (Homo sapiens (Human), UniProt Q07343)"
readout_label = "pIC50"
readout_value = "5.00 to 6.00"

[[record]]
compound = "COc1ccc(-c2nc(C)c3c(n2)N(c2ccc(CC(=O)O)cc2)CC3C)cc1F (stereo not drawn)"
subject_of_test = "human PDE4B1 (Homo sapiens (Human), UniProt Q07343)"
readout_label = "pIC50"
readout_value = "> 6.00"


Lookup result for `CCc1nc(-c2ccc(OC)c(F)c2)nc2c1ccn2-c1ccc(C(=O)O)cc1` ; measured pIC50: > 6.00

* * *

# IC50 values compiled below
biological target: human PDE4B1 (Homo sapiens (Human)); assay: cAMP HTRF assay to determine the activity of hPDE4B1; details: human recombinant PDE4B1 expressed in Sf9 cells; cAMP 40 nM; N=1-2, n=2; read-out: PDE4B IC50-value

Some molecules with known IC50 results, for comparison:
[[record]]
molecule = "COc1ccc(-c2nc(C)c3c(n2)N(c2ccc(CC(=O)O)cc2)CC3)cc1F [Compound 7]"
readout_value = "< 1000 nM"

[[record]]
molecule = "COc1ccc(-c2nc(C)c3ccn(-c4ccc(C(=O)O)cc4)c3n2)cc1F [Compound 1]"
readout_value = "< 1000 nM"

[[record]]
molecule = "COc1ccc(-c2nc(C)c3ccn(-c4ccc(C(=O)O)cc4)c3n2)cc1Cl [Compound 14]"
readout_value = "< 1000 nM"

[[record]]
molecule = "COc1ccc(-c2nc(C3CC3)c3ccn(-c4cccc(OCC(=O)N(C)C)c4)c3n2)cc1F [Compound 76]"
readout_value = "1000 to 10000 nM"

[[record]]
molecule = "COc1ccc(-c2nc(S(C)(=O)=O)c3ccn(-c4cccc(OCC(=O)N(C)C)c4)c3n2)cc1F [Compound 50]"
readout_value = "1000 to 10000 nM"


Lookup result for CCc1nc(-c2ccncc2)nc2c1ccn2-c1cccc(OCC(=O)N(C)C)c1 [Compound 82] ; measured IC50: < 1000 nM

Lookup result for COc1ccc(-c2nc(C)c3c(n2)N(c2ccc(CC(=O)O)cc2)CC3C)cc1Cl (centres unmarked) [Compound 24] ; measured IC50: < 1000 nM

Lookup result for CCc1nc(-c2cccnc2)nc2c1ccn2-c1cccc(OCC(=O)N(C)C)c1 [Compound 83] ; measured IC50: < 1000 nM

This collection of values is drawn from patent US9688683B2.
